Reported residual activity values for a set of compounds
Target: Tyrosine-protein kinase Mer (Homo sapiens) (UniProt Q12866)
Sequence (Q12866 whole entry): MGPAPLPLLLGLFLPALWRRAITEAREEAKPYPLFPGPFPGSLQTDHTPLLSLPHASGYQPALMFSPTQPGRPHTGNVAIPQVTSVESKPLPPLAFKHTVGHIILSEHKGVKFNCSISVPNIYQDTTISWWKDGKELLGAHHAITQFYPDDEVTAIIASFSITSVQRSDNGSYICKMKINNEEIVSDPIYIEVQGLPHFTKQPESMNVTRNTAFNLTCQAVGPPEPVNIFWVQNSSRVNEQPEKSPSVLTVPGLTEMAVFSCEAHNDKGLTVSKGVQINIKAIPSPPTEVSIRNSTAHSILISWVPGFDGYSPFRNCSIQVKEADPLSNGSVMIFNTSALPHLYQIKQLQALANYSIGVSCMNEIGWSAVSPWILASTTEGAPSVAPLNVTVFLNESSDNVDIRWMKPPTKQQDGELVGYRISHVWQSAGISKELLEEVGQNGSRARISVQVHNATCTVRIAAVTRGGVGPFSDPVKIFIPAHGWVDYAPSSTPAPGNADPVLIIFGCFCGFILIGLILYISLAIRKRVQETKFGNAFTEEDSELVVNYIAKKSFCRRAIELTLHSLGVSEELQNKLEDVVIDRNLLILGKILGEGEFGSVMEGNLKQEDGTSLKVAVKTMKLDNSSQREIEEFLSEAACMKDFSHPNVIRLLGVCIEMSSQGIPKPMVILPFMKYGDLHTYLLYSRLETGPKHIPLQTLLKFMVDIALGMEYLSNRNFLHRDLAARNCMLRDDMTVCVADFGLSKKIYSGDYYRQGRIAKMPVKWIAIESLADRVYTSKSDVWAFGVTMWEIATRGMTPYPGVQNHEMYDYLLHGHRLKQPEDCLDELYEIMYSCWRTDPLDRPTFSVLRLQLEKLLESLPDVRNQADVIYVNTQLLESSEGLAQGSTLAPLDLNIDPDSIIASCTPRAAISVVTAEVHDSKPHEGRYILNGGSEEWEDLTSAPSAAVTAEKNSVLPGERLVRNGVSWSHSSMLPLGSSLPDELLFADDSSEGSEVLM
Settings: at 10 µM
Report field: quantity (unit follows the number).

Worked set:
COMPOUND_STRING: O=c1cc(-c2cccc3c2Sc2ccccc2S3)oc(N2CCOCC2)c1
residual activity: 89%
--
COMPOUND_STRING: c1ccc2c(-c3ccncc3)c[nH]c2c1
residual activity: 73%
--
COMPOUND_STRING: CCN(CC)C(=O)c1ccc(Nc2nc(OCC3CCCCC3)c3nc[nH]c3n2)cc1
residual activity: 0%
--
COMPOUND_STRING: COc1ccc(OC)c2c(=S)c3ccccc3[nH]c12
residual activity: 85%

Which measured residual activity value corresponds to Cc1ccc(NC2=CC(=O)c3sc(C)nc3C2=O)cc1 ?
110%

Which measured residual activity value corresponds to Ic1cccc(CSc2nnc(-c3ccncc3)o2)c1 ?
48%

====

Target: Serine/threonine-protein kinase WNK2 (Homo sapiens) (UniProt Q9Y3S1)
Sequence (Q9Y3S1 whole entry): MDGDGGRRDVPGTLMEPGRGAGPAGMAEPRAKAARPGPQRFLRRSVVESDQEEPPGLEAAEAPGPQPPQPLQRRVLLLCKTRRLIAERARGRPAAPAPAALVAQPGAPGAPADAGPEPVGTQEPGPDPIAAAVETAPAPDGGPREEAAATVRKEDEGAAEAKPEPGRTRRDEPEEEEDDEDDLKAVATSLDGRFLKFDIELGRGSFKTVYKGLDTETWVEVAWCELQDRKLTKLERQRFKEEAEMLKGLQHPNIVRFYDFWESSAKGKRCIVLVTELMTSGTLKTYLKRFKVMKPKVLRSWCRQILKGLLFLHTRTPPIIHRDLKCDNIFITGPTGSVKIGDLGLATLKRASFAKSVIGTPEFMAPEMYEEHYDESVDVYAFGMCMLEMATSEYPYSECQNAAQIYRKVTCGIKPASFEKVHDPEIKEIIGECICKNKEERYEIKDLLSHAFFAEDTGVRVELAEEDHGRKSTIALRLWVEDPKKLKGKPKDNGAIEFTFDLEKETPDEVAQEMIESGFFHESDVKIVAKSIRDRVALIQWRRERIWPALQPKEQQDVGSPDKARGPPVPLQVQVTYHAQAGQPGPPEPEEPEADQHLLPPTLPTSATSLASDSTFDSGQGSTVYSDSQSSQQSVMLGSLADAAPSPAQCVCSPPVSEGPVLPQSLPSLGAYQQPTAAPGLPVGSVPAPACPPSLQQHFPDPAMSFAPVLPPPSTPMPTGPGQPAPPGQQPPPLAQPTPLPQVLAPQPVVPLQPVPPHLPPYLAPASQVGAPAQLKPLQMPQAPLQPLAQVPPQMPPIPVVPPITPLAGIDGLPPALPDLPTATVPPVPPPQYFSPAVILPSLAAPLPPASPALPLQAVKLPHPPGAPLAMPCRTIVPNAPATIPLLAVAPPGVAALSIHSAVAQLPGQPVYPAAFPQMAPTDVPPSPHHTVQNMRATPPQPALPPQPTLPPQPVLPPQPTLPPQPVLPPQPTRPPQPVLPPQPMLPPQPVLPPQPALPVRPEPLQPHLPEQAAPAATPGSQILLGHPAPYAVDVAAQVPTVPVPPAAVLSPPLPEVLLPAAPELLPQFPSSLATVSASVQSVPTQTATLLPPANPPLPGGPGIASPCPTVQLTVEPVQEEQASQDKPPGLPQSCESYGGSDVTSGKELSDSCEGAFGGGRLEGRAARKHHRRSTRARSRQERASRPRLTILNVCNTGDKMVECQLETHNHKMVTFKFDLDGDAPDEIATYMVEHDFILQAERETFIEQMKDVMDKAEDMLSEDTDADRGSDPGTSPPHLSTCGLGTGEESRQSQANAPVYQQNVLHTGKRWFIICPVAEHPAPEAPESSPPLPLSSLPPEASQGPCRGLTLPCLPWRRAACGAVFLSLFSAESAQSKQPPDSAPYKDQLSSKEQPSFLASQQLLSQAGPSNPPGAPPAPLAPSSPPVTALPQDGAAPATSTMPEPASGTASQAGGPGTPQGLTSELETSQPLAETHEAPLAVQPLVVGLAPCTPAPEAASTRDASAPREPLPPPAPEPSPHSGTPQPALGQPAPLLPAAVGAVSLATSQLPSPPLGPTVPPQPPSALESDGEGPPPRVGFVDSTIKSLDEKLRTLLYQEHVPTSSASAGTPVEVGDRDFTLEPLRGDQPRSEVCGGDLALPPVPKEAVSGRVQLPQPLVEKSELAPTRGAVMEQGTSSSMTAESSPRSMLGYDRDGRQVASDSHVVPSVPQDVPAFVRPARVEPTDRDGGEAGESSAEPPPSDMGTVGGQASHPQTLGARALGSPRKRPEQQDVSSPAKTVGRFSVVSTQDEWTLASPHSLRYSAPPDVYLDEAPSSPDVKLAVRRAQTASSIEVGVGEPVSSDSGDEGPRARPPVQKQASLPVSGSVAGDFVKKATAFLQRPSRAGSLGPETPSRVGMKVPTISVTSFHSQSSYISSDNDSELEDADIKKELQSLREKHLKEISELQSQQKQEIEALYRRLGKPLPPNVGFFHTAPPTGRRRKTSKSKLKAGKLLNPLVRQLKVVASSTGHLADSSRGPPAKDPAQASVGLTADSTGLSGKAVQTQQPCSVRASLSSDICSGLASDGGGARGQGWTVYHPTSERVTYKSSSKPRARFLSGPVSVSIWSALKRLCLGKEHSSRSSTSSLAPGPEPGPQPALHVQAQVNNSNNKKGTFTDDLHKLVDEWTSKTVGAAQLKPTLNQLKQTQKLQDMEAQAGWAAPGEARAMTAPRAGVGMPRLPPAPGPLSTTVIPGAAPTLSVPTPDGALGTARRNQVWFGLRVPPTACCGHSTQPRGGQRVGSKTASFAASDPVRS
Conditions: at 10 µM
Description: Millipore: Percentage of residual kinase activity of WNK2 at 10uM relative to control. Control inhibitor: Phosphoric acid* at 0.3uM. Buffer: 8 mM MOPS pH 7.0, 0.2 mM EDTA
Reported residual activity values for a set of compounds
Give a bare numeral; the unit % is implied.

Worked set:
COMPOUND_STRING: CC#CC(=O)Nc1cc2c(Nc3ccc(F)c(Cl)c3)ncnc2cn1
TESTED_TARGET: Serine/threonine-protein kinase WNK2 (Homo sapiens) (UniProt Q9Y3S1)
TEST_RESULT: 84
//
COMPOUND_STRING: COc1ccc(OC)c2c(=S)c3ccccc3[nH]c12
TESTED_TARGET: Serine/threonine-protein kinase WNK2 (Homo sapiens) (UniProt Q9Y3S1)
TEST_RESULT: 87
//
COMPOUND_STRING: O=C1Nc2cc(Br)ccc2/C1=C1/Nc2ccccc2/C1=N\O
TESTED_TARGET: Serine/threonine-protein kinase WNK2 (Homo sapiens) (UniProt Q9Y3S1)
TEST_RESULT: 91
//
COMPOUND_STRING: O=C1Nc2ccc(Br)cc2/C1=C\c1cc2c([nH]1)CCCC2
TESTED_TARGET: Serine/threonine-protein kinase WNK2 (Homo sapiens) (UniProt Q9Y3S1)
TEST_RESULT: 84
//
COMPOUND_STRING: NC(=O)c1ccc2[nH]c(-c3ccc(Oc4ccc(Cl)cc4)cc3)nc2c1
TESTED_TARGET: Serine/threonine-protein kinase WNK2 (Homo sapiens) (UniProt Q9Y3S1)
TEST_RESULT: 78

Which measured residual activity value corresponds to CCOc1cc2ncnc(Nc3cccc(Br)c3)c2cc1OCC ?
79

Which measured residual activity value corresponds to O=C1NC(=O)/C(=C\c2ccc3nccnc3c2)S1 ?
65

Which measured residual activity value corresponds to O=c1cc(-c2cccc3c2Sc2ccccc2S3)oc(N2CCOCC2)c1 ?
78

Which measured residual activity value corresponds to COc1ccc(S(=O)(=O)N(CCO)c2ccccc2CN(C)C/C=C/c2ccc(Cl)cc2)cc1 ?
88

Which measured residual activity value corresponds to c1ccc2c(-c3ccncc3)c[nH]c2c1 ?
75

Which measured residual activity value corresponds to CN(C)c1ccc(/C=C2\C(=O)Nc3ccccc32)cc1 ?
76

====

Target: Serine/threonine-protein kinase Nek7 (Homo sapiens) (UniProt Q8TDX7)
Sequence (Q8TDX7 whole entry, looked up): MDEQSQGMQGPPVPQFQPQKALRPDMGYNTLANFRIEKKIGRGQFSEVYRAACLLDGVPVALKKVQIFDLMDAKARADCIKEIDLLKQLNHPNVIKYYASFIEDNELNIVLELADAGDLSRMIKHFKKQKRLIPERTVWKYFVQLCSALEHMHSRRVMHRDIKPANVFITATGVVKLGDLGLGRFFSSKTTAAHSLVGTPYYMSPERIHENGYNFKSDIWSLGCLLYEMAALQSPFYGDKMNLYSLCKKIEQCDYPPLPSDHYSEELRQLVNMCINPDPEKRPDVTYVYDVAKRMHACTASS
Conditions: at 10 µM
Description: Millipore: Percentage of residual kinase activity of NEK7 at 10uM relative to control. Control inhibitor: Phosphoric acid* at 0.3uM. Buffer: 8 mM MOPS pH 7.0, 0.2 mM EDTA
READOUT: residual activity (%)
Give a bare numeral; the unit % is implied.

COMPOUND_STRING: Nc1ccc2ncnc(NCCc3ccc(Oc4ccccc4)cc3)c2c1
residual activity [%]: 117
--
COMPOUND_STRING: O=c1cc(-c2cccc3c2Sc2ccccc2S3)oc(N2CCOCC2)c1
residual activity [%]: 140
--
COMPOUND_STRING: CN(C)c1ccc(/C=C2\C(=O)Nc3ccccc32)cc1
residual activity [%]: 116
--
COMPOUND_STRING: O=C1Nc2ccc(Br)cc2/C1=C\c1cc2c([nH]1)CCCC2
residual activity [%]: 102
--
COMPOUND_STRING: Cn1cnc2cc3c(Nc4cccc(Br)c4)ncnc3cc21
residual activity [%]: 103

Then this compound:
Which measured residual activity value corresponds to C[C@@H](N)[C@H]1CC[C@H](C(=O)Nc2ccncc2)CC1 ?
112

====

Molecular target: Mitogen-activated protein kinase 9 (Homo sapiens) (UniProt P45984)
Sequence (P45984 whole entry, looked up): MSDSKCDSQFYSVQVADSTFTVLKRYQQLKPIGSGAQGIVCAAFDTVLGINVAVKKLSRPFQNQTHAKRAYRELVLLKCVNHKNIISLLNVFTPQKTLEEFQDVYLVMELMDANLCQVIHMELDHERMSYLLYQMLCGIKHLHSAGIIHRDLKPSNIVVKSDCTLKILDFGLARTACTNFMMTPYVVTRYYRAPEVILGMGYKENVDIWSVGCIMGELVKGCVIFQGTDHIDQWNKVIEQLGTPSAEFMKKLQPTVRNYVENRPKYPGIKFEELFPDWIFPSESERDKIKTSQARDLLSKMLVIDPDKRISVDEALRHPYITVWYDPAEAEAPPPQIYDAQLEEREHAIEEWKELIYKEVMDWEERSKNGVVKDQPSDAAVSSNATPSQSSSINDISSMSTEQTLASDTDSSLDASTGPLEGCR
Details: at 10 µM
Description: Millipore: Percentage of residual kinase activity of MAPK9 at 10uM relative to control. Control inhibitor: Jnk Inhibitor II at 100.0uM. Buffer: 50 mM Tris pH 7.5, 0.1 mM EGTA, 0.1% ?-mercaptoethanol
Reported residual activity values for a set of molecules
Give a bare numeral; the unit % is implied.

Worked set:
MOLECULE: CC(=O)O/N=C1\C(=C2\C(=O)Nc3cc(Br)ccc32)Nc2ccccc21
TESTED_TARGET: Mitogen-activated protein kinase 9 (Homo sapiens) (UniProt P45984)
TEST_RESULT: 94
--
MOLECULE: Cn1cc(/C=C2\C(=O)Nc3ccc(S(N)(=O)=O)cc32)c2ccccc21
TESTED_TARGET: Mitogen-activated protein kinase 9 (Homo sapiens) (UniProt P45984)
TEST_RESULT: 95
--
MOLECULE: Nc1cccc(-c2cc3c(Oc4cccc(O)c4)ncnc3[nH]2)c1
TESTED_TARGET: Mitogen-activated protein kinase 9 (Homo sapiens) (UniProt P45984)
TEST_RESULT: 82

Which measured residual activity value corresponds to O=C1NC(=O)c2c1c1c3ccccc3[nH]c1c1[nH]c3cc(Br)ccc3c21 ?
121

Which measured residual activity value corresponds to Oc1c2ccccc2c2c3c(cccc13)N=N2 ?
-6

Which measured residual activity value corresponds to N#C/C(=C(\N)Sc1ccc(N)cc1)c1ccccc1C(F)(F)F ?
103

Which measured residual activity value corresponds to CO[C@H]1[C@@H](OC)C[C@H](C)[C@@H](OC)C2=CC(=O)C=C(NC(=O)/C(C)=C/C=C/[C@H](OC)[C@@H](OC(N)=O)/C(C)=C/[C@@H]1C)C2=O ?
100

Which measured residual activity value corresponds to COc1cc2ncnc(Nc3ccc(O)c(Br)c3)c2cc1OC ?
78

Which measured residual activity value corresponds to O=C1NC(=O)/C(=C/c2ccc3c(c2)OC(F)(F)O3)S1 ?
102

====

Target: Serine/threonine-protein kinase Chk1 (Homo sapiens) (UniProt O14757)
Sequence (O14757 whole entry): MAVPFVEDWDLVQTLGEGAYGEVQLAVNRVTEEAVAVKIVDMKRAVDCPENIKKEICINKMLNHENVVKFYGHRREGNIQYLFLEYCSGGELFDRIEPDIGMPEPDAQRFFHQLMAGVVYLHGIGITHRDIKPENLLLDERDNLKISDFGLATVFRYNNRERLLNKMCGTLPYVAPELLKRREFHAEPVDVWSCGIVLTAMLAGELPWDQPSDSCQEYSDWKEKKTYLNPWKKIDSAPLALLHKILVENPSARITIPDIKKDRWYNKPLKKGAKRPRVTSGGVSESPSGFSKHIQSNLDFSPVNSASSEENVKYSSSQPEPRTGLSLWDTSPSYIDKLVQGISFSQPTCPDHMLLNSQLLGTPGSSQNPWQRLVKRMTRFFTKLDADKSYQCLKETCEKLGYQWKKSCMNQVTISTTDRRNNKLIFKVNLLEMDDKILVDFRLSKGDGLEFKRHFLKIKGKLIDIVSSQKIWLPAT
Settings: at 10 µM
Hi, to clarify the labels: Y covers residual activity from 90% upward, N covers anything below 90%.

COMPOUND_STRING: COc1cc2ncnc(Nc3ccc(NC(=O)c4ccccc4)cc3)c2cc1OC
CLASS: Y

Now look at this one.
Confirm if residual activity reported for the molecule CCN(CC)C(=O)c1ccc(Nc2nc(OCC3CCCCC3)c3nc[nH]c3n2)cc1 is 90% or above.
N

====

Target: Discoidin domain-containing receptor 2 (Homo sapiens) (UniProt Q16832)
Sequence (whole entry): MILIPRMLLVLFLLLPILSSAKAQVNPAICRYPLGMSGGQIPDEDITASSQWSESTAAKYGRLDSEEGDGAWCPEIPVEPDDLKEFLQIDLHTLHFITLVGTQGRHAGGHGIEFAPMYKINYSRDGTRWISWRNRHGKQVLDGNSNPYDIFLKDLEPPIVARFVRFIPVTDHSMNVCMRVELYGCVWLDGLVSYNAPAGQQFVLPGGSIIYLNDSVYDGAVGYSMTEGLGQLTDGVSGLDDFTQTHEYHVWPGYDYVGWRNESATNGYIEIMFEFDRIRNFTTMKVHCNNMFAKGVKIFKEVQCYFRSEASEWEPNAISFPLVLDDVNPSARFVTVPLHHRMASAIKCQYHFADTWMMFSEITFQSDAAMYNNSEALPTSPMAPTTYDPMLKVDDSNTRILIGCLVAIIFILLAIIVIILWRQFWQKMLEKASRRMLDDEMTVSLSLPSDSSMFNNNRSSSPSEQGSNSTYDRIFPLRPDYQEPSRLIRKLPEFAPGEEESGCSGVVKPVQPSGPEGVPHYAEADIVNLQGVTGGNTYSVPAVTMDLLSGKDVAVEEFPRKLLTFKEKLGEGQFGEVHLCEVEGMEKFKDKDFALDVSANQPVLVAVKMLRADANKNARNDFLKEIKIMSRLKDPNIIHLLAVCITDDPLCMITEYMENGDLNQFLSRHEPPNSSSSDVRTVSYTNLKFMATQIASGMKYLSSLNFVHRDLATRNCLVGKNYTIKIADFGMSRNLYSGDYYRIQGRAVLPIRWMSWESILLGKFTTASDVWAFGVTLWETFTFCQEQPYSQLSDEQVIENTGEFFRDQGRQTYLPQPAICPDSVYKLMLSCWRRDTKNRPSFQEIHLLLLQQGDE
Conditions: at 10 µM
READOUT: residual activity (%)
Give a bare numeral; the unit % is implied.

COMPOUND: Oc1ccc(-c2nc(-c3ccc(F)cc3)c(-c3ccncc3)[nH]2)cc1
residual activity, %: 20

Then this compound:
Which measured residual activity value corresponds to O=Nc1c(-c2c(O)[nH]c3ccccc23)[nH]c2ccccc12 ?
87

====

Biological target: Mitogen-activated protein kinase 13 (Homo sapiens)
Conditions: at 10 µM
READOUT: residual activity

COMPOUND_STRING: O=[N+]([O-])c1ccc(-c2nc(-c3ccc(F)cc3)c(-c3ccncc3)[nH]2)cc1
residual activity: 99%
//
COMPOUND_STRING: CN(C)c1ccc(/C=C2\C(=O)Nc3ccccc32)cc1
residual activity: 102%
//
COMPOUND_STRING: O=Nc1c(-c2c(O)[nH]c3ccccc23)[nH]c2ccccc12
residual activity: 82%
//
COMPOUND_STRING: N#C/C(=C(\N)Sc1ccc(N)cc1)c1ccccc1C(F)(F)F
residual activity: 90%
//
COMPOUND_STRING: O=C1c2ccccc2-[n+]2ccc3c([nH]c4ccccc43)c21
residual activity: 96%
//
COMPOUND_STRING: Cc1nc2cc3nc(-c4cccs4)cnc3cc2n1C
residual activity: 103%
//
COMPOUND_STRING: COc1ccc(S(=O)(=O)N(CCO)c2ccccc2CN(C)C/C=C/c2ccc(Cl)cc2)cc1
residual activity: 92%
//
COMPOUND_STRING: COc1cc2ncnc(N3CCN(C(=O)Nc4ccc(Oc5ccccc5)cc4)CC3)c2cc1OC
residual activity: 84%

Which measured residual activity value corresponds to Nc1cccc(-c2cc3c(Oc4cccc(O)c4)ncnc3[nH]2)c1 ?
91%

Which measured residual activity value corresponds to N#CCCc1ccc2c(c1)-c1[nH]c3ccc([N+](=O)[O-])cc3c1CC(=O)N2 ?
55%

Which measured residual activity value corresponds to Ic1cccc(CSc2nnc(-c3ccncc3)o2)c1 ?
94%
